Source listed as patent US20110038881A1.

target: HLA-DRB1*1101 (human); test: competition binding; settings: modification not given
Assign IC50 to each entry below.

Item under review: THMTHHAVSDHEATL [p38] . Reported IC50?
> 100 µM

Moving on to the next binder: LTLRWEPSSQPTIPI [p51*]
> 100 µM

Moving on to the next binder: RKVKAHSQTHRVDLG [p12]
> 100 µM
